protocolDescription: in vivo
reportedConditions: mouse, po, in stomach, ddy male mice, mortality within 1 week, read-out: Acute toxicity (LD50) in stomach

{"columns": ["compound", "LD50 at 168 h"],
 "data": [
  ["CC(C)(C)NCC(O)COc1cccc2c1OS(=O)(=O)CC2 (stereo not drawn)", "> 500 mg/kg"],
  ["CC(C)NCC(O)COc1cccc2c1OS(=O)(=O)CC2 (stereo not drawn)", "> 500 mg/kg"],
  ["CCC(C)NCC(O)COc1cccc2c1OS(=O)(=O)CC2 (stereo not drawn)", "> 500 mg/kg"]
]}

* * *

protocolDescription: in vivo
reportedConditions: mouse, iv, caudal vein, ddy male mice, mortality within 1 week, read-out: Acute toxicity (LD50) intra-venous
LD50 at 168 h listing for selected compounds.
observedProperty: LD50 at 168 h

{"columns": ["compound", "observedProperty", "result"],
 "data": [
  ["CC(C)(C)NCC(O)COc1cccc2c1OS(=O)(=O)CC2 (stereo not shown)", "LD50 at 168 h", "59.2 mg/kg"],
  ["CC(C)NCC(O)COc1cccc2c1OS(=O)(=O)CC2 (stereo not shown)", "LD50 at 168 h", "68.2 mg/kg"],
  ["CC(C)(C)NCC(O)COc1cccc2c1CCC(=O)N2 (stereo not shown) [carteolol, reference compound]", "LD50 at 168 h", "38 mg/kg"],
  ["CCC(C)NCC(O)COc1cccc2c1OS(=O)(=O)CC2 (stereo not shown)", "LD50 at 168 h", "68.2 mg/kg"]
]}

* * *

Tested on: β-Receptor
protocolDescription: β-receptor blocking effect: 3H-dihydroalprenolol binding to synaptosome membrane of rat brain
reportedConditions: 10^-5 mole test compound, 10 µM
observedProperty: β-Receptor blocking effect Inhibition (%)

{"columns": ["compound", "testedOn", "numericReadout"],
 "data": [
  ["CC(C)(C)NCC(O)COc1cccc2c1OS(=O)(=O)CC2 (stereo not drawn)", "β-Receptor", 91.4],
  ["CC(C)NCC(O)COc1cccc2c1OS(=O)(=O)CC2 (stereo not drawn)", "β-Receptor", 91.6],
  ["COc1ccc(CCNCC(O)COc2cccc3c2OS(=O)(=O)CC3)cc1OC (stereo not drawn)", "β-Receptor", 90.1]
]}
